experimental.protocol: method code SF-AS, from Rouot, B.; Leclerc, G.; Wermuth, C.; Miesch, F.; Schwartz, J. (1977). Structure-activity relations and problems related to the mechanism of action of clonidine.Journal de Pharmacologie, 8(1)95-106.
endpoint.label: logP
Provide a numeric answer; units are not to be included.

Quick one: logP of Oc1cc(Cl)c(NC2=NCCN2)c(Cl)c1 ?
1.52

Fill in the blank: the reported logP of Cc1ccc(NC2=NCCN2)c(Cl)c1 is ____.
1.87

What measured logP goes with Cc1cccc(Cl)c1NC1=NCCN1 ?
1.41

Given the entry COc1cc(C)ccc1NC1=NCCN1 , report its measured logP.
1.64

Can you share its logP? I mean this compound: Cc1ccc(Cl)cc1NC1=NCCN1
1.8

Dear colleague, I am looking for the recorded logP of the following compound: COc1ccc(OC)c(NC2=NCCN2)c1
0.97

What logP value was documented for this compound, Brc1ccc(NC2=NCCN2)cc1 ?
1.75

Need logP, item Clc1ccc(NC2=NCCN2)c(Cl)c1
1.96

Using the record for Fc1cccc(F)c1N=C1NCCN1 , report its logP.
1.06

Give its logP value. Item: COc1cc(OC)c(NC2=NCCN2)cc1Cl
1.38

Fill in: logP of FC(F)(F)c1ccccc1NC1=NCCN1 is ___
1.42

// lookup logP for Cc1cc(Cl)ccc1NC1=NCCN1
1.77

Reported logP for c1ccc(NC2=NCCN2)cc1 : what is it?
1.01

Item Cc1cccc(C)c1NC1=NCCN1 has what recorded logP?
1.45

Given Brc1cccc(Br)c1NC1=NCCN1 , state its recorded logP.
1.73

# logP lookup, item CC(C)c1cccc(C(C)C)c1NC1=NCCN1
3.04
